- Test system: A498 renal
- MEASUREMENT_NOTES: NCI-60 one-dose screen, 48 h (100 = growth as untreated, 0 = no growth, -100 = all killed)
- STUDY_CONDITIONS: 10 µM unless noted
The panel holds about 83,000 compounds, 20% with a hit somewhere; the sample as a whole holds those more often.
ASSAY_METRIC: growth (%)

>>> recorded_number("CC(C)(C)OC[C@@H]1N=C(c2ccc(Br)cc2)Nc2nc3ccccn3c2C1=O")
66.9
>>> recorded_number("COc1cc(NCCC2CCCCN2)c2ncccc2c1OC (stereo not drawn)")
113
>>> recorded_number("CNC1=C([N+](=O)[O-])C(c2ccccc2O)C(C#N)=C(c2cccs2)O1 (stereo not drawn)")
110

###

- Test system: SK-MEL-5 melanoma
- MEASUREMENT_NOTES: NCI-60 one-dose screen, 48 h (100 = growth as untreated, 0 = no growth, -100 = all killed)
- STUDY_CONDITIONS: 10 µM unless noted
The panel holds about 83,000 compounds, 20% with a hit somewhere; the sample as a whole holds those more often.
ASSAY_METRIC: growth (%)

>>> recorded_number("CN(C)c1nc(-c2ccco2)n2nc(-c3ccc(Cl)cc3)cc2n1")
81.2
>>> recorded_number("Cc1ccccc1NC(=O)c1sc2nc3c(cc2c1N)C(=O)CCC3")
18.6
>>> recorded_number("C=C1C(=O)O[C@H]2[C@H]1CC/C(COC(=O)NCc1c[nH]c3ccc(OC)cc13)=C\\CC[C@@]1(C)O[C@@H]21")
15.1
>>> recorded_number("CC1OC(n2c3ccccc3c3c4c(c5c6ccccc6[nH]c5c32)C(=O)N(CCN[C@H]2CCC[C@@H]2N)C4=O)CC(O)C1O (stereo not given in full)")
23.7
>>> recorded_number("C=C1C[C@@]2(C)C(CC[C@]3(C)C2CC=C2C4CC(C)(C)C[C@@H](OC(=O)/C(C)=C\\C)[C@]4(C(=O)O)CC[C@]23C)C(C)(C)C1=O (stereo not given in full)")
26.4

###

- Tested on: SK-MEL-28 melanoma
- MEASUREMENT_NOTES: NCI-60 one-dose screen, 48 h (100 = growth as untreated, 0 = no growth, -100 = all killed)
- STUDY_CONDITIONS: 10 µM unless noted
This is part of a sample that, as a whole, favours compounds with a hit. Of some 83,000 tested, about 20% had one in any assay. Activity calls are given as the source filed them. How the source made its calls: active means growth percent below 10; inactive means the rest.
Listed here: items and their measured growth.
ASSAY_METRIC: growth

>>> result("O=C(/C=C/c1ccccc1)c1c[nH]c2ccccc2c1=O")
"66.4% (inactive)"
>>> result("N/C(=N\\OC(=O)c1ccccc1)C(C(=O)NOC(=O)c1ccccc1)C1CCCCC1 (stereo not drawn)")
"93.3% (inactive)"
>>> result("Nc1ccc(C2=NNC(=O)Cc3cc4c(cc32)OCCO4)cc1Cl")
"56.4% (inactive)"
>>> result("CC(=O)C1CCC2C3CC(C)=C4CC(O)CCC4(C)C3CCC12C (stereo not drawn)")
"105% (inactive)"
>>> result("CC(C)(C)c1nn(-c2ccccc2)c2c1C(=O)CSC(c1ccccc1Cl)N2 (stereo not drawn)")
"47.3% (inactive)"
>>> result("Oc1ccc(-c2nc3ccccc3s2)cc1CN(Cc1ccccn1)Cc1ccccn1")
"33.1% (inactive)"
>>> result("CCc1c(C)c2ccc(O)c(-c3cc(-c4ccccc4)c(C#N)c(=O)[nH]3)c2oc1=O")
"107% (inactive)"
>>> result("O=C(N/N=C/c1ccc([N+](=O)[O-])cc1)c1ccccc1Nc1ccnc(C(F)(F)F)c1")
"104% (inactive)"
